Test system: MRSA (ATCC 43300)
Test: microbe, parasite or virus in culture
Type: cell-based, Staphylococcus aureus
Conditions: MHB, 2–5 × 10^5 CFU/mL, 16–18 h, 37 °C, OD600
Non-standard residues stand in square brackets, D forms with d. Residues, ends and D or L forms follow the SMILES beside them. d1Nal = N[C@H](Cc1cccc2ccccc12)C(=O)O; 12Ado = NCCCCCCCCCCCC(=O)O; Aoc = NCCCCCCCC(=O)O
Measure: Minimum inhibitory concentration, MIC

{"columns": ["Compound", "Experimental value"],
 "data": [
  ["N=C(N)NCCC[C@H](NC(=O)[C@H](Cc1c[nH]c2ccccc12)NC(=O)CCCCCCCCCCCNC(=O)[C@H](Cc1c[nH]c2ccccc12)NC(=O)[C@@H](N)CCCNC(=N)N)C(N)=O [S-7, Arg-Trp-(12-ADO)-Trp-Arg-CONH2] (HELM PEPTIDE1{R.W.[O=C(CCCCCCCCCCCN[*:1])[*:2]].W.R.[am]}$$$$V2.0)", "11.3 µg/mL"],
  ["N=C(N)NCCC[C@H](NC(=O)CCCCCCCCCCCNC(=O)[C@H](CCCNC(=N)N)NC(=O)[C@@H](N)Cc1c[nH]c2ccccc12)C(=O)N[C@@H](Cc1c[nH]c2ccccc12)C(N)=O [S-6, Trp-Arg-(12-ADO)-Arg-Trp-CONH2] (HELM PEPTIDE1{W.R.[O=C(CCCCCCCCCCCN[*:1])[*:2]].R.W.[am]}$$$$V2.0)", "11.3 µg/mL"]
]}

Q: Form field: reported Minimum inhibitory concentration, MIC of N=C(N)NCCC[C@H](NC(=O)[C@@H](Cc1cccc2ccccc12)NC(=O)CCCCCCCNC(=O)[C@@H](Cc1cccc2ccccc12)NC(=O)[C@@H](N)CCCNC(=N)N)C(N)=O [S-9] (H-R[d1Nal][Aoc][d1Nal]R-NH2)
Ans: >45.4 µg/mL

Q: Also N=C(N)NCCC[C@H](NC(=O)[C@@H](Cc1cccc2ccccc12)NC(=O)CCCCCCCCCCCNC(=O)[C@@H](Cc1cccc2ccccc12)NC(=O)[C@@H](N)CCCNC(=N)N)C(N)=O [S-8] (H-R[d1Nal][12Ado][d1Nal]R-NH2) ?
Ans: 1.4 µg/mL
